# assay.summary: A549 cell viability effects, profiling panel, calcein-AM fluorescence, 48 h, basal (AID 1162); also: test concentration not given here
# applied.conditions: higher = more signal
z-score listing for selected compounds.
measurement.name: z-score

compound.structure.string	measured.result
COc1ccc([Si](C)(C)[C@@H]2[C@@H](CCO)O[C@]3(C(=O)N(Cc4cccc(N5C(=O)c6cccc7cccc5c67)c4)c4ccccc43)[C@H]2C)cc1	-1.03
C=CCNC(=O)[C@H]1[C@@H]2C(=O)O[C@@H](c3ccccc3)[C@@H](c3ccccc3)N2[C@@H](c2ccccc2OCCO)[C@]12C(=O)N(C(=O)OCCOC)c1ccc(C#CC3=CCCCC3)cc12	-1.51
COc1cc2c(cc1OC)CN(C(=O)[C@H]1[C@@H]3C(=O)O[C@@H](c4ccccc4)[C@@H](c4ccccc4)N3[C@@H](c3ccc(OCCO)cc3)[C@]13C(=O)Nc1ccc(C#CCCO)cc13)CC2	0.269
